method_notes: Primary imaging screen for DUSP6 inhibitors that restore phospho-Erk in transfected HeLa cells, chemical complementation (AID 609)
experimental_conditions: HeLa MKP-3 transfected, phospho-Erk imaging KS statistic; measured here: nuclear c-Myc green intensity z-score; at 10 µM
property_name: z-score
One number for each entry.

>  <molecule>
c1ccc2c3c([nH]c2c1)CNCC3

>  <test_result>
-0.573

$$$$
>  <molecule>
CCN(CC)CCN=C(C)c1c(O)n(-c2ccccc2OC)c(=O)[nH]c1=O

>  <test_result>
-1.02

$$$$
>  <molecule>
CN1CCN(C(=O)OC2c3nccnc3C(=O)N2c2ccc(Cl)cn2)CC1 (stereo not drawn)

>  <test_result>
-1.54

$$$$
>  <molecule>
CC(C)N(CCC(C(N)=O)(c1ccccc1)c1ccccn1)C(C)C (stereo not drawn)

>  <test_result>
0.954

$$$$

Record z-score for all entries; do not skip any.
1. O=C(CN1CCN(CCO)CC1)Nc1ccc(Cl)cc1C(=O)c1ccccc1
2. COc1ccc(-n2c(SC)nc3ccccc3c2=O)cc1
3. C[N+]1(C)CCc2cc3c(cc2[C@H]1[C@@H]1OC(=O)c2c1ccc1c2OCO1)OCO3
4. COc1ccc(C2SCC(=O)Nc3c2c(=O)[nH]n3C2CCCCC2)cc1 (stereo not drawn)
5. CN(C)[C@@H]1C(=O)C(C(N)=O)=C(O)[C@@]2(O)C(=O)C3=C(O)c4c(O)cccc4[C@@](C)(O)[C@H]3[C@H](O)[C@@H]12
6. CN1C(=O)CN=C(c2ccc(Cl)cc2)c2cc(Cl)ccc21
7. O=c1c(C=NCCN2CCNCC2)c(O)n(C2CCCCC2)c(=O)n1C1CCCCC1

[-0.897, -1.67, -0.122, -1.45, -1.29, -0.617, 0.939]

Would you be so kind as to report z-score for each listed record?
1. O=c1[nH]c2ccccc2n1C1CCN(CCCC(c2ccc(F)cc2)c2ccc(F)cc2)CC1
2. c1ccc2c(c1)[nH]c1cnccc12

0.151
-0.369

Quick batch: z-score for everything below.
1. CC[N+]1(C)CCCC(OC(=O)C(O)(c2ccccc2)c2ccccc2)C1 (stereo not drawn)
2. CNCCc1nc(N)n[nH]1
3. CCOC(=O)c1cc2c(cn1)[nH]c1ccccc12
4. CCCC(C)(COC(N)=O)COC(=O)NC(C)C (stereo not drawn)

[-0.0245, -0.447, -1.06, 0.189]

Please give z-score for each item listed below.
1. CCC(=NCCN1CCCCC1)c1c(O)n(C)c(=O)n(C)c1=O
2. O=c1[nH]c(=O)n(Cc2ccccc2)c(O)c1C=NCCN1CCOCC1
3. CCCCNC(=O)Nc1ccc(C(O)(C(=O)OCC)C(F)(F)F)cc1 (stereo not drawn)
4. COc1ccc(OC)c([C@@H](O)[C@H](C)NC(C)(C)C)c1
5. COc1ccccc1-n1c(O)c(C=NCCCn2ccnc2)c(=O)[nH]c1=O
6. CCCCCCn1c(O)c(C(C)=NC)c(=O)[nH]c1=O

1: -1.21; 2: -2.11; 3: -1.24; 4: 0.685; 5: -0.884; 6: -1.06
